# test.system: PTK6 (human) (UniProt Q13882)
# Sequence (Q13882 whole entry, looked up): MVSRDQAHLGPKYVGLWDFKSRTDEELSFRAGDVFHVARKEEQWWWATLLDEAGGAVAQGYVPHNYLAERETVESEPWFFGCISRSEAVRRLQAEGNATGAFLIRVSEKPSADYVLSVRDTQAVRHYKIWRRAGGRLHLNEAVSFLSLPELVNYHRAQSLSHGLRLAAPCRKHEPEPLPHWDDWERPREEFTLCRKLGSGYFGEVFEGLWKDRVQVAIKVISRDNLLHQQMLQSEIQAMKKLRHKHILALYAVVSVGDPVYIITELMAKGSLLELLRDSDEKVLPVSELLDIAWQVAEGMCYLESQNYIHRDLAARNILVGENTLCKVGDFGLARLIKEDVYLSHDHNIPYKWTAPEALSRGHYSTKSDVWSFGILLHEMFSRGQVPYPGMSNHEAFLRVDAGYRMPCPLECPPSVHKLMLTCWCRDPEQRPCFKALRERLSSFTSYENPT
# experimental.protocol: radiometric filter-binding kinase assay
# test.parameters: compound 0.01 µM
outcome.measure: residual activity (%)

Solved entries:
molecule: COc1cc(O)c2c(c1)[C@H]1OC1C[C@H](O)[C@H](O)C(=O)/C=C\C[C@H](C)OC2=O (some centres undefined)
test.system: PTK6 (human) (UniProt Q13882)
residual activity, %: 101
//
molecule: COc1ccc(N(C(=O)Nc2c(C)cccc2C)c2cc(Nc3ccc(N4CCN(C)CC4)cc3)ncn2)c(OC)c1
test.system: PTK6 (human) (UniProt Q13882)
residual activity, %: 97

a: O=C(Nc1nc2cc(C(F)(F)F)cc(NC3CC3)n2n1)c1cccnc1
b: CNC(=O)C1[C@H]2O[C@@](C)([C@@H]1N)n1c3ccccc3c3c4c(c5c6ccccc6n2c5c31)C(=O)NC4 (some centres undefined)
Prompt line: a or b : whose residual activity is greater? Record your answer as the label of the chosen record.
Response line: a
(a: 114%, b: 28%)
